These entries and their values trace back to the Immune Epitope Database (IEDB).

Biological target: HLA-B*40:01
Experiment: IEDB peptide-MHC binding, purified MHC/direct/fluorescence; filed as Kd, often an IC50 or EC50 that approximates it; bounds were set here for any values at or beyond the usual limits of such assays
Conditions: source organism: Pseudomonas aeruginosa UCBPP-PA14
test.readout: Kd

# value of Kd, HLA-B*40:01, item GLGGDASAY = ≥ 20 µM

* * *

Target: HLA-A*11:01
Experiment: IEDB peptide-MHC binding, purified MHC/direct/fluorescence; filed as Kd, often an IC50 or EC50 that approximates it; bounds were set here for any values at or beyond the usual limits of such assays
Conditions: source organism: Orthohantavirus hantanense
test.readout: pKd
Kindly note that pKd refers to -log10 of the concentration in mol/L and answer with the value alone.

// pKd lookup, sequence = ISNQEPLKL , result: 4.73
